ASSAYED TARGET: T1, cyno FcRn/b2M (cyno, UniProt Q8SPV9 24-297; Q8SPW0 21-119, biotinylated)
T1 construct: bought recombinant biotinylated protein (Immunitrack ITF05 or ACRO FCM-C82W5); also called cFcRn; cFcRn/cb2M
T1 sequence (Q8SPV9 24-297 limits assumed, chain 1 of 2): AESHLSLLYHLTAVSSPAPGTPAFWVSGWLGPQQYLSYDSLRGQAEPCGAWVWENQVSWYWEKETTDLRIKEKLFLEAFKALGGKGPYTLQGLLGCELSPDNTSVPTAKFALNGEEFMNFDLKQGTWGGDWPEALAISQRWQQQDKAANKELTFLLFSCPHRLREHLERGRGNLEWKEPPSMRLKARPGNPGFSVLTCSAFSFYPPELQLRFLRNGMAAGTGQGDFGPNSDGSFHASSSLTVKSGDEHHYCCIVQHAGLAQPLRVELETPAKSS
T1 sequence (Q8SPW0 21-119 limits assumed, chain 2 of 2): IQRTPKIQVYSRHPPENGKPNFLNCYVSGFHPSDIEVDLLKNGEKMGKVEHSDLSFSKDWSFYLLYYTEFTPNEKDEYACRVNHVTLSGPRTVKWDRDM
EXPERIMENTAL PROTOCOL: SPR pH 6.0;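 further: surface plasmon resonance kinetics at 25 °C, diluted periplasmic extracts injected over immobilized ligand surfaces, 120 s association then 600–3600 s dissociation, running buffer containing 150 mM NaCl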
ASSAY READOUT: koff (s⁻¹)

In: Quick one: koff for T0263018B11 T96Q (VHH, name in Kabat numbering, FLAG3-His6 tagged) VHH: EVQLVESGGGVVQPGGSLRLSCAASGFTFSSYAMYWVRQAPGKGLEWVSAISSGGGSTDYADSVKGRFTISRDNSKNTLYLQMNSLRPEDTALYYCAADQLYTSLTWYSYWGQGTLVTVSS ?
Out: 0.002

In: Follow-up item: T0263018B11 A33V (VHH, name in Kabat numbering, FLAG3-His6 tagged) VHH: EVQLVESGGGVVQPGGSLRLSCAASGFTFSSYVMYWVRQAPGKGLEWVSAISSGGGSTDYADSVKGRFTISRDNSKNTLYLQMNSLRPEDTALYYCAADTLYTSLTWYSYWGQGTLVTVSS
Out: 0.00024

I: T0263018B11 S30Q (VHH, name in Kabat numbering, FLAG3-His6 tagged) VHH: EVQLVESGGGVVQPGGSLRLSCAASGFTFQSYAMYWVRQAPGKGLEWVSAISSGGGSTDYADSVKGRFTISRDNSKNTLYLQMNSLRPEDTALYYCAADTLYTSLTWYSYWGQGTLVTVSS
II: T0263018B11 F29Q (VHH, name in Kabat numbering, FLAG3-His6 tagged) VHH: EVQLVESGGGVVQPGGSLRLSCAASGFTQSSYAMYWVRQAPGKGLEWVSAISSGGGSTDYADSVKGRFTISRDNSKNTLYLQMNSLRPEDTALYYCAADTLYTSLTWYSYWGQGTLVTVSS
In: Sorting by koff in descending order, would I or II appear first? I would appreciate it if you answered with the label of your choice.
Out: II
(II: 0.0017 s⁻¹, I: 0.00055 s⁻¹)
